# Target Or System: T1, cynomolgus soluble ULBP5 (cULBP5) (cynomolgus)
# T1 construct: also called Cyno-cULBP5
# T1 chain: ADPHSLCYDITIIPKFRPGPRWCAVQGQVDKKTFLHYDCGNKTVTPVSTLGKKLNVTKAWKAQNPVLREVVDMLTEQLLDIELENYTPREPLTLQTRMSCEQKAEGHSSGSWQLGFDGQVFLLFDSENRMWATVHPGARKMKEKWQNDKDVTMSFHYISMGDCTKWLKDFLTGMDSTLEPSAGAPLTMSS
# Experiment Notes: SPR (BIACORE);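 also: soluble human and cynomolgus NKG2D ligands injected as analytes in 3-fold dilution series spanning 0.01 to 50 nM at 37 °C, reference-subtracted sensorgrams fitted to a 1:1 Langmuir model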
Measurement Name: pKd
Lab note: report pKd as minus log10 of the concentration in molar units, number only.

Sample answers from the record:
Binder: Humanized 8E11 (h8E11) (E-) (antibody, human IgG1, kappa, N297G, V domains shown, hIgG1 with N297G (effector negative)) VH: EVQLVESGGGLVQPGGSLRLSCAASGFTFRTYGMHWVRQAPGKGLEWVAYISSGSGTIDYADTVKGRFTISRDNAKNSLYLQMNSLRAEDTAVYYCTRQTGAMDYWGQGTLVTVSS VL: EIVLTQSPATLSLSPGERATLSCSASSSVSYMNWYQQKPGQSPRLWIYGISNLASGVPARFSGSGSGTDFTLTISSLEPEDFAVYYCQQRSSHPLTFGGGTKVEIKR
Measurement Name: pKd
Test Value: 7.64
--
Binder: Humanized 1D4 (h1D4) (E-) (antibody, human IgG1, kappa, N297G, V domains shown, hIgG1 with N297G (effector negative)) VH: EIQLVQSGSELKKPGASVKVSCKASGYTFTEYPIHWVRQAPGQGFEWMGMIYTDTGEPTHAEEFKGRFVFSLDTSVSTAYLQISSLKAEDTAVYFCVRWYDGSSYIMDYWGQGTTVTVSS VL: DIQMTQSPSSLSASVGDRVTITCKASQDINSYLSWFQQKPGKSPKTLIYRANRLVDGVPSRFSGSGSGQDYTFTISSLQPEDIATYYCLQYDEFPLTFGGGTKVEIKR
Measurement Name: pKd
Test Value: 9.20
--
Binder: Humanized 7B3 (h7B3) (E-) (antibody, human IgG1, kappa, N297G, V domains shown, hIgG1 with N297G (effector negative)) VH: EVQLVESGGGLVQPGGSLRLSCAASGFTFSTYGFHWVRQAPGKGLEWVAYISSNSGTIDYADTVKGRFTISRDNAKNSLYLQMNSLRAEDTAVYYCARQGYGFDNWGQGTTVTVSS VL: DIQLTQSPSSLSASVGDRVTITCSASSRVSYMNWYQQKPGKSPKIWVYGISNLASGVPSRFSGSGSGTDFTFTISSLQPEDIATYYCQQRSSHPLTFGGGTKVEIKR
Measurement Name: pKd
Test Value: 8.12

// returns reported pKd for input Humanized 6E1 (h6E1) (E-) (antibody, human IgG1, kappa, N297G, V domains shown, hIgG1 with N297G (effector negative)) VH: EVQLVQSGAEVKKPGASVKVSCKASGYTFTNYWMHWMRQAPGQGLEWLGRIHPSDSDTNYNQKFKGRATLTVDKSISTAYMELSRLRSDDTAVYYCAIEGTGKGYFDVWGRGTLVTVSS VL: DIQMTQSPSSLSASVGDRVTITCKASQDIYSYLSWFQQKPGKSPKTLIYRANRLVDGVPSRFSGSGSGQDFTLTISSLQPEDFATYYCLHYDEFPLTFGGGTKVEIKR
8.99
